target of assay: HIV-1 Env of pseudovirus BB1012-11.TC21 (HIV-1)
assay notes: cell-based or functional assay
parameter measured: neutralization IC50 (µg/mL)
Answer format: numeric, µg/mL implied, no suffix.

Observe how each entry below is paired with its result.
binder: MS-75 (antibody, V domains shown) VH: QVQLVQSGPEVRKPGTSVKVSCKASGNTLKTYDLHWVRSVPGQGLQWMGWISHEGDKKVIVERFKAKVTIDWDRSTNTAYLQLSGLTSGDTAVYYCAKGSKHRLRDYALYDDDGALNWAVDVDYLSNLEFWGQGTAVTVSS VL: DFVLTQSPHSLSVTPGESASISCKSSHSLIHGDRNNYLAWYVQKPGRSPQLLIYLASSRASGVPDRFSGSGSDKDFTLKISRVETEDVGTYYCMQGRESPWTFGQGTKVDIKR
parameter measured: neutralization IC50
unit descriptor: µg/mL
value measured: 0.029
//
binder: MS-81 (antibody, V domains shown) VH: QVQLVQSGPEVRKPGTSVKVSCKAPGNTLKTYDLHWVRSVPGQGLQWMGWISHEGDKKVIVERFKAKVTIDWDRSTNTAYLELSGLTSGDTAVYYCAKGSKHRLRDYALYDDDGALNWAVDVDYLSNLEFWGQGTAVTVSS VL: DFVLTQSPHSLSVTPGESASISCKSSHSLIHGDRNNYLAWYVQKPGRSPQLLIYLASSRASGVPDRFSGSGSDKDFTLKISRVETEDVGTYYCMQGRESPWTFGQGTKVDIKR
parameter measured: neutralization IC50
unit descriptor: µg/mL
value measured: 0.024

Please find the next binder below.
[ask] Could you share which neutralization IC50 value was measured for MS-72 (antibody, V domains shown) VH: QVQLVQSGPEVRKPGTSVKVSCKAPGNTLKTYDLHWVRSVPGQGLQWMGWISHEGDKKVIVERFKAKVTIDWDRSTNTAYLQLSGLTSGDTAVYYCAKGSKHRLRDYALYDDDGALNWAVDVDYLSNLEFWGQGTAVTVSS VL: DFVLTQSPHSLSVTPGESASISCKSSHSLIHGDRNNYLAWYVQKPGRSPQLLIYLASSRASGVPDRFSGSGSDTDFTLKISRVETEDVGTYYCMQGRESPWTFGQGTKVDIKR ?
[reply] 0.023
